# SUBJECT OF TEST: human metabotropic glutamate 7 receptor (hmGlu7) (Homo sapiens, UniProt Q14831)
# Sequence (Q14831 35-922 isoform Q14831-2 limits assumed): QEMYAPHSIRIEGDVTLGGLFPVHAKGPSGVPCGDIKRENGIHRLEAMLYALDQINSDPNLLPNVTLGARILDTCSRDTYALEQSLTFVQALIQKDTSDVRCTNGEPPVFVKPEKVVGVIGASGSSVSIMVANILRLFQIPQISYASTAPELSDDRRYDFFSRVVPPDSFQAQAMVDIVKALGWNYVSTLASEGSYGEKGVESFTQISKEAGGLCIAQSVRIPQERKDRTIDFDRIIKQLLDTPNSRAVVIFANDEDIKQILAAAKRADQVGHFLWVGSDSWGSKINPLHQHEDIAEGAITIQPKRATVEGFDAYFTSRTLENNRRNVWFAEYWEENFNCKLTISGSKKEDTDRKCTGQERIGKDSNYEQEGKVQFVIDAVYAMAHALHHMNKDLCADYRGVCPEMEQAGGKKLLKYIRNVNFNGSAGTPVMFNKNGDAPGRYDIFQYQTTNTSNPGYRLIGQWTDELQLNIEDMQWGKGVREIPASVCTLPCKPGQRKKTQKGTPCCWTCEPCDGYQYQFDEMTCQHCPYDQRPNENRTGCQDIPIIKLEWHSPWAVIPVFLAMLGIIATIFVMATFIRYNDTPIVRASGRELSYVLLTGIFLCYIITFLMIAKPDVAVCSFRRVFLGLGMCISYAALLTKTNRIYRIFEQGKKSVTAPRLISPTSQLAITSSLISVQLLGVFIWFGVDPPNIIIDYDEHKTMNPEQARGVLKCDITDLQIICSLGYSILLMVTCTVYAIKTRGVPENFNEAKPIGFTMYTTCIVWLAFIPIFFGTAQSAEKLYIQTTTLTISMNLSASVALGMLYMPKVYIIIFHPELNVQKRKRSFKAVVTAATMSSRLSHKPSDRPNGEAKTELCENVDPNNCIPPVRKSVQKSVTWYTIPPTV
# TEST: mGlu7 assay on HEK-expressing human mGlu7: fluorescent cell based-Ca2+ mobilization assay (FLIPR), inhibition of EC80 L-AP4 response
# DETAILS: HEK-293 cells expressing hmGlu7, EC80 L-AP4; mean of at least three independent experiments in duplicate; read-out: Ca^2+ Flux (mean IC50)
ASSAY METRIC: IC50

Some solved cases for reference:
| SMILES STR | IC50 |
| --- | --- |
| Cc1c(-c2cccc(N3CCC3)c2)c(C)n2c(=O)n(-c3ccccn3)ncc12 | < 100 nM |
| COc1ccc(-c2c(C)c3cnn(-c4ncccn4)c(=O)n3c2C)c(C)c1 | < 100 nM |
| Cc1c(-c2cccc(N3CCC3)c2)c(C)n2c(=O)n(-c3ccc(NC(=O)OC(C)(C)C)cn3)ncc12 | 100 to 1000 nM |
| Cc1c(-c2ccnc3c2CCN3C)cc2cnn(-c3ncccn3)c(=O)n12 | 100 to 1000 nM |
| Cc1c(-c2cccc3c2CCN3C)cc2cnn(-c3ccccn3)c(=O)n12 | < 100 nM |
| Cc1cnc(-n2ncc3c(C)c(-c4cccc(OC5CC5)c4)c(C)n3c2=O)nc1 | 100 to 1000 nM |
| COc1cnc(-n2ncc3c(C)c(-c4cccc(N5CCC5)c4)c(C)n3c2=O)nc1 | < 100 nM |
| Cc1c(OC2CC2)cccc1-c1cc2cnn(-c3ccccn3)c(=O)n2c1C | 100 to 1000 nM |
| COc1cc(-c2cc3cnn(-c4ccccn4)c(=O)n3c2C)ccn1 | < 100 nM |
| COCCNc1ccc(-n2ncc3c(C)c(-c4cccc(N5CCC5)c4)c(C)n3c2=O)nc1 | 100 to 1000 nM |

# input Lab request: please report IC50 under test system human metabotropic glutamate 7 receptor (hmGlu7) (Homo sapiens, UniProt Q14831) for `COc1ccc(F)c(-c2cc3cnn(-c4ncccn4)c(=O)n3c2C)c1`
# output 100 to 1000 nM

# input Then `COc1nccc(-c2cc3cnn(-c4ncccn4)c(=O)n3c2C)c1F` ?
# output < 100 nM

# input Then `Cc1c(-c2cccc(OC3CC3)c2)cc2cnn(-c3ccccn3)c(=O)n12` ?
# output 1000 to 10000 nM

# input Then `Cc1c(-c2cccc(F)c2Cl)c(C)n2c(=O)n(-c3ncccn3)ncc12` ?
# output < 100 nM

# input Then `Cc1c(-c2cccc(N3CCC3)c2)c(C)n2c(=O)n(-c3ncc(OCCN(C)C)cn3)ncc12` ?
# output 100 to 1000 nM

# input Then `COc1cccc(-c2cc3cnn(-c4ncccn4)c(=O)n3c2C)c1F` ?
# output 100 to 1000 nM
